IC50 listing for selected compounds.
- Study System: Human PD-L1/PD-1 (Homo sapiens, UniProt Q9NZQ7)
- Construct: made in house; host or cells: HEK293T
- Sequence (Q9NZQ7 with tags, fused parts or gaps): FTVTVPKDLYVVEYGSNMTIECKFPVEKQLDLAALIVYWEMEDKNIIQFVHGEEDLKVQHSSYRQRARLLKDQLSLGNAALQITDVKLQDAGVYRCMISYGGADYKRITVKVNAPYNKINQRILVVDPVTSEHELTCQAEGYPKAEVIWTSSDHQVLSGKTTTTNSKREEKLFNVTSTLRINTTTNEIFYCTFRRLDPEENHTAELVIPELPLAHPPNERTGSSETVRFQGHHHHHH
- Test Method Notes: HTRF PD-1-Ig/PD-L1-His binding assay (human PD-L1)
- Test Settings: cluster symbol; read-out: HTRF IC50 cluster
Positions of bridges follow the written chain, without caps; N, C: chain ends. Non-standard residues stand in square brackets, D forms with d. Residues, ends and D or L forms follow the SMILES beside them. ξ: configuration not given here. Phe(F5) = N[C@@H](Cc1c(F)c(F)c(F)c(F)c1F)C(=O)O; Phe(3-F) = N[C@@H](Cc1cccc(F)c1)C(=O)O; Phe(4-Me) = Cc1ccc(C[C@H](N)C(=O)O)cc1; Bta = N[C@@H](Cc1csc2ccccc12)C(=O)O; Hyp = O=C(O)[C@@H]1C[C@@H](O)CN1; NMeF = CN[C@@H](Cc1ccccc1)C(=O)O; NMeNle = CCCC[C@H](NC)C(=O)O; Pen = CC(C)(S)[C@H](N)C(=O)O; NMeS = CN[C@@H](CO)C(=O)O; NMeA = CN[C@@H](C)C(=O)O; Dap = NC[C@H](N)C(=O)O; ξC = NC(CS)C(=O)O; Sar = CNCC(=O)O

Answered examples (5):
Task: Consider the compound shown here: CCCC[C@H]1C(=O)N(C)CC(=O)N[C@@H](CC(=O)O)C(=O)N[C@@H](C(C)C)C(=O)N(C)[C@@H](Cc2ccccc2)C(=O)N[C@@H](Cc2ccc(O)cc2)C(=O)N(C)CC(=O)N[C@@H](Cc2csc3ccccc23)C(=O)N[C@@H](Cc2ccc(O)cc2)C(=O)N[C@@H](CC(C)C)C(=O)N[C@H](C(=O)NCC(N)=O)CSCC(=O)N[C@@H](Cc2cccc(F)c2)C(=O)N(C)[C@@H](Cc2ccccc2)C(=O)N1C [Example 3117] ({CH2CO}-[Phe(3-F)][NMeF][NMeNle][Sar]DV[NMeF]Y[Sar][Bta]YLCG-NH2; thioether N-13) What is its recorded IC50?
Result: 6.76 to 30.3 nM

Task: Consider the compound shown here: CCCC[C@H]1C(=O)N(C)CC(=O)N[C@@H](CC(=O)O)C(=O)N[C@@H](C(C)C)C(=O)N[C@@H](Cc2ccc(C)cc2)C(=O)N[C@@H](Cc2ccc(O)cc2)C(=O)N(C)CC(=O)N[C@@H](Cc2c[nH]c3ccccc23)C(=O)N[C@@H](Cc2ccc(O)cc2)C(=O)N[C@@H](CC(C)C)C(=O)N[C@H](C(=O)NCC(N)=O)CSCC(=O)N[C@@H](Cc2ccccc2)C(=O)N(C)[C@@H](Cc2ccccc2)C(=O)N1C [Example 3135] ({CH2CO}-F[NMeF][NMeNle][Sar]DV[Phe(4-Me)]Y[Sar]WYLCG-NH2; thioether N-13) What is its recorded IC50?
Result: > 30.5 nM

Task: Consider the compound shown here: CCCC[C@H]1C(=O)N(C)[C@@H](CCCC)C(=O)N[C@@H](CC(C)C)C(=O)N[C@H](C(=O)NCC(N)=O)CSCC(=O)N[C@@H](Cc2ccc(O)cc2)C(=O)N(C)[C@@H](C)C(=O)N[C@@H](CC(N)=O)C(=O)N2CCC[C@H]2C(=O)N[C@@H](Cc2c[nH]cn2)C(=O)N[C@@H](CCC(N)=O)C(=O)N2C[C@H](O)C[C@H]2C(=O)N[C@@H](Cc2c[nH]c3ccccc23)C(=O)NCC(=O)N[C@@H](Cc2c[nH]c3ccccc23)C(=O)N1C [Example 5109] ({CH2CO}-Y[NMeA]NPHQ[Hyp]WGW[NMeNle][NMeNle]LCG-NH2; thioether N-14) What is its recorded IC50?
Result: 0.385 to 6.74 nM

Task: Consider the compound shown here: CCCC[C@H]1C(=O)N(C)CC(=O)N[C@@H](CC(=O)O)C(=O)N[C@@H](C(C)C)C(=O)N(C)[C@@H](Cc2ccccc2)C(=O)N[C@@H](Cc2ccc(O)cc2)C(=O)N(C)CC(=O)N[C@@H](Cc2c[nH]c3ccccc23)C(=O)N[C@@H](Cc2ccc(O)cc2)C(=O)N[C@@H](CC(C)C)C(=O)N[C@H](C(=O)NCC(N)=O)CSCC(=O)N[C@@H](Cc2c(F)c(F)c(F)c(F)c2F)C(=O)N(C)[C@@H](Cc2ccccc2)C(=O)N1C [Example 3078] ({CH2CO}-[Phe(F5)][NMeF][NMeNle][Sar]DV[NMeF]Y[Sar]WYLCG-NH2; thioether N-13) What is its recorded IC50?
Result: > 30.5 nM

Task: Consider the compound shown here: CCCC[C@H]1C(=O)N(C)CC(=O)N[C@@H](CN)C(=O)N[C@@H](C(C)C)C(=O)N(C)[C@@H](Cc2ccccc2)C(=O)N[C@@H](Cc2ccc(O)cc2)C(=O)N(C)CC(=O)N[C@@H](Cc2c[nH]c3ccccc23)C(=O)N[C@@H](Cc2ccc(O)cc2)C(=O)N[C@@H](CC(C)C)C(=O)N[C@H](C(=O)NCC(N)=O)CSCC(=O)N[C@@H](Cc2ccccc2)C(=O)N(C)[C@@H](Cc2ccccc2)C(=O)N1C [Example 3152] ({CH2CO}-F[NMeF][NMeNle][Sar][Dap]V[NMeF]Y[Sar]WYLCG-NH2; thioether N-13) What is its recorded IC50?
Result: 6.76 to 30.3 nM

Others:
Task: Consider the compound shown here: CCCC[C@H]1C(=O)N(C)[C@@H](CCCC)C(=O)N[C@@H](CCCNC(=N)N)C(=O)N[C@H](C(=O)NCC(N)=O)C(C)(C)SCC(=O)N[C@@H](Cc2ccccc2)C(=O)N(C)[C@@H](C)C(=O)N[C@@H](CC(N)=O)C(=O)N2CCC[C@H]2C(=O)N[C@@H](Cc2cnc[nH]2)C(=O)N[C@@H](CC(C)C)C(=O)N(C)CC(=O)N[C@@H](Cc2c[nH]c3ccccc23)C(=O)N[C@@H](CO)C(=O)N[C@@H](Cc2c[nH]c3ccccc23)C(=O)N1C [Example 1083] ({CH2CO}-F[NMeA]NPHL[Sar]WSW[NMeNle][NMeNle]R[Pen]G-NH2; thioether N-14) What is its recorded IC50?
Result: 0.385 to 6.74 nM

Task: Consider the compound shown here: CCCC[C@H]1C(=O)N(C)[C@@H](CCCC)C(=O)N[C@@H](CC(N)=O)C(=O)N[C@H](C(=O)NCC(N)=O)CSCC(=O)N[C@@H](Cc2ccccc2)C(=O)N(C)[C@@H](C)C(=O)N[C@@H](CC(N)=O)C(=O)N2CCC[C@H]2C(=O)N[C@@H](Cc2cnc[nH]2)C(=O)N[C@@H](CC(C)C)C(=O)N(C)CC(=O)N[C@@H](Cc2c[nH]c3ccccc23)C(=O)N[C@@H](CO)C(=O)N[C@@H](Cc2c[nH]c3ccccc23)C(=O)N1C [Example 5014] ({CH2CO}-F[NMeA]NPHL[Sar]WSW[NMeNle][NMeNle]NCG-NH2; thioether N-14) What is its recorded IC50?
Result: 6.76 to 30.3 nM

Task: Consider the compound shown here: CCCC[C@H]1C(=O)N(C)[C@@H](CO)C(=O)N[C@@H](CCCNC(=N)N)C(=O)NC(C(=O)NCC(N)=O)CSCC(=O)N[C@@H](Cc2ccc(O)cc2)C(=O)N(C)[C@@H](C)C(=O)N[C@@H](CC(N)=O)C(=O)N2CCC[C@H]2C(=O)N[C@@H](Cc2cnc[nH]2)C(=O)N[C@@H](CC(C)C)C(=O)N2C[C@H](O)C[C@H]2C(=O)N[C@@H](Cc2c[nH]c3ccccc23)C(=O)N[C@@H](CO)C(=O)N[C@@H](Cc2csc3ccccc23)C(=O)N1C (some centres unmarked) [Example 9033] ({CH2CO}-Y[NMeA]NPHL[Hyp]WS[Bta][NMeNle][NMeS]R[ξC]G-NH2; thioether N-14) What is its recorded IC50?
Result: 6.76 to 30.3 nM
